conditions: Ebola virus entry assay, ratio channel
The source made the active and inactive calls. No rule for the calls is given here.
Property measured: AC50

The following compounds have reported results that may help.
// fetch AC50 given entry CN(N=O)C(=O)N[C@@H]1[C@@H](O)[C@H](O)[C@@H](CO)O[C@@H]1O
inactive

Provide AC50 value for the following compound: COc1cc(NCc2ccc3nc(N)nc(N)c3c2C)cc(OC)c1OC
28.2 µM (active)

Indicate its recorded AC50; the compound in question is Cc1cn([C@H]2C=C[C@@H](CO)O2)c(=O)[nH]c1=O
inactive

Return reported AC50. Input compound: COC(c1ccccc1)(c1ccccc1)[C@H](Oc1nc(C)cc(C)n1)C(=O)O
inactive

Please indicate AC50 recorded for O=c1[nH]c2ccccc2n1CCCN1CCC(n2c(=O)[nH]c3cc(Cl)ccc32)CC1
25.1 µM (active)

Provide one value: measured AC50 of FC(F)(F)c1cccc(C2=CCN(CCc3ccc4ccccc4c3)CC2)c1
inactive

Quote AC50 reported for Nc1ccncc1 please.
inactive

# return recorded AC50 for input NN=C(N)N
inactive

Using the record for CCC1=C[C@@H]2CN(C1)Cc1c([nH]c3ccccc13)[C@@](C(=O)OC)(c1cc3c(cc1OC)N(C)[C@H]1[C@@](O)(C(=O)OC)[C@H](OC(C)=O)[C@]4(CC)C=CCN5CC[C@]31[C@@H]54)C2 , state its measured AC50.
2.51 µM (active)

Output measured AC50 for this item: Cc1ccc2c(n1)Oc1ccc(C(C)C(=O)OCC(=O)N(C)C)cc1C2 (stereo unspecified)
inactive

Continuing:
Tell me AC50 reported for CC(=O)O[C@]1(C(C)=O)CC[C@H]2[C@@H]3C=C(Cl)C4=CC(=O)[C@@H]5C[C@@H]5[C@]4(C)[C@H]3CC[C@@]21C
3.55 µM (active)

Note down AC50 recorded for CN(C)CCc1c[nH]c2ccc(CS(=O)(=O)N3CCCC3)cc12
inactive

Tell me its AC50 given O=P(O)(O)C(O)(Cc1cccnc1)P(=O)(O)O as the entry.
inactive

Let me know recorded AC50 for CN(C)CCOC(c1ccc(Cl)cc1)c1ccccn1 (stereo unspecified) , thanks.
inactive

Assign AC50 to the following record: COc1cccc2c1C(=O)c1c(O)c3c(c(O)c1C2=O)C[C@@](O)(C(=O)CO)C[C@@H]3O[C@H]1C[C@H](N)[C@H](O)[C@H](C)O1
14.1 µM (active)

Find the measured AC50 of Cc1[nH]cnc1CN1CCc2c(c3ccccc3n2C)C1=O and report it.
inactive

Quickly give me recorded AC50 for CCCc1cc(=O)[nH]c(=S)[nH]1
inactive

For the compound CSc1ccc2c(c1)N(CCC1CCCCN1C)c1ccccc1S2 (stereo unspecified) , report AC50.
3.16 µM (active)

Give the measured AC50 for Cn1cnc2c(F)c(Nc3ccc(Br)cc3Cl)c(C(=O)NOCCO)cc21
inactive

Give the reported value of AC50 for this record: CO/N=C1\CN(c2nc3c(cc2F)c(=O)c(C(=O)O)cn3C2CC2)CC1CN (stereo unspecified)
inactive

Tell me AC50 reported for Cc1ccc(-n2[nH]c(C)c(N=Nc3cccc(-c4cccc(C(=O)O)c4)c3O)c2=O)cc1C
inactive
